Measured inhibition at 5 µM, listed per entry.
target-under-test: USP8^CD (purified catalytic domain of USP8) (Homo sapiens)
Construct: the purified catalytic domain of USP8 (USP8^CD, in-house purified); made in house; host or cells: E. coli BL21 Gold
Sequence (P40818 777-1109 limits assumed): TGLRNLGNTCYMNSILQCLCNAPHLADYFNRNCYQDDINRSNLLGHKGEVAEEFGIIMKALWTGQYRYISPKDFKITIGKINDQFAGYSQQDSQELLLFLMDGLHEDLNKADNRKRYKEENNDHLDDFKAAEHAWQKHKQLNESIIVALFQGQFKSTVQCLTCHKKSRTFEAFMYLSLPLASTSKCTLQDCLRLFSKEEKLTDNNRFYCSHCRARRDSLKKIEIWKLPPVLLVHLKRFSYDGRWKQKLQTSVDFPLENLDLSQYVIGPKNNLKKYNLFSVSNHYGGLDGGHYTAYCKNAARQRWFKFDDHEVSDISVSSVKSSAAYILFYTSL
method-description: Inhibition of purified USP8^CD enzymatic activity (Ub-AMC or Ub-Rho substrate)
Format: biochemical
test-context: 5 μM compound; Table 1d
Description: USP2CD or USP8CD were expressed in E. coli BL21 Gold. Cells were grown in LB Miller to mid-log phase and induced by addition of 0.5 mM IPTG for USP2CD for 5 h at 20° C., while 1 mM IPTG was added for USP8CD for 3 h at 37° C. Then, cells were harvested and frozen at −80° C. For His-tagged USP8CD, cells were resuspended in buffer A (50 mM TRIS pH 8.0, 500 mM NaCl, 2 mM Imidazole) and lysed using a sonicator. […]
Supply the numeric figure in %, leaving out any unit text.

Take a look at these entries with their results.
INSERT INTO assay_data (molecule, assay_endpoint, readout_number) VALUES
  ('O=C1c2ccccc2C(=O)c2nc(CS(=O)(=O)c3cccc(Cl)c3)c(CS(=O)(=O)c3cccc(Cl)c3)nc21 [OVM15]', 'inhibition at 5 µM', 52),
  ('COc1ccc(S(=O)(=O)Cc2nc3c(nc2CS(=O)(=O)c2ccc(OC)cc2)C(=O)c2ccccc2C3=O)cc1 [PCR7994]', 'inhibition at 5 µM', 52);

get_value(item= O=C1c2ccccc2C(=O)c2nc(CS(=O)(=O)c3ccc4c(c3)OCCO4)c(CS(=O)(=O)c3ccc4c(c3)OCCO4)nc21 [OVM19] , readout=inhibition at 5 µM) returns 46

====

// reported inhibition at 25 µM per item
target-under-test: USP8^CD (purified catalytic domain of USP8) (Homo sapiens)
Construct: the purified catalytic domain of USP8 (USP8^CD, in-house purified); made in house; host or cells: E. coli BL21 Gold
method-description: Inhibition of purified USP8^CD enzymatic activity (Ub-AMC or Ub-Rho substrate)
Type: biochemical
test-context: 25 μM compound; Table 1b
Please state the figure in %; there is no need to write the unit.

Tested on USP8^CD (purified catalytic domain of USP8) (Homo sapiens), the item O=C1c2ccccc2C(=O)c2nc(CS(=O)(=O)c3ccc(Br)s3)c(CS(=O)(=O)c3ccc(Br)s3)nc21 showed inhibition at 25 µM equal to 92

inhibition at 25 µM on USP8^CD (purified catalytic domain of USP8) (Homo sapiens) for CCCS(=O)(=O)Cc1nc2c(nc1CS(=O)(=O)CCC)C(=O)c1ccccc1C2=O is 100

Hey, USP8^CD (purified catalytic domain of USP8) (Homo sapiens) data for O=C1c2ccccc2C(=O)c2nc(CS(=O)(=O)c3ccc(F)c(F)c3F)c(CS(=O)(=O)c3ccc(F)c(F)c3F)nc21 : inhibition at 25 µM came out at 100

inhibition at 25 µM of O=C1c2ccccc2C(=O)c2nc(CS(=O)(=O)c3ccc4c(c3)OCCO4)c(CS(=O)(=O)c3ccc4c(c3)OCCO4)nc21 , assay on USP8^CD (purified catalytic domain of USP8) (Homo sapiens), is 76

Result for O=C1c2ccccc2C(=O)c2nc(CS(=O)(=O)c3ccccc3F)c(CS(=O)(=O)c3ccccc3F)nc21 , tested on USP8^CD (purified catalytic domain of USP8) (Homo sapiens), inhibition at 25 µM: 115

The reported inhibition at 25 µM value, USP8^CD (purified catalytic domain of USP8) (Homo sapiens), for O=C1c2ccccc2C(=O)c2nc(CS(=O)(=O)c3cccc(F)c3)c(CS(=O)(=O)c3cccc(F)c3)nc21 reads 102

// assay USP8^CD (purified catalytic domain of USP8) (Homo sapiens), entry COc1ccc(S(=O)(=O)Cc2nc3c(nc2CS(=O)(=O)c2ccc(OC)c(OC)c2)C(=O)c2ccccc2C3=O)cc1OC , inhibition at 25 µM value = 96
